Tested target: human melanocortin 4 receptor (human, UniProt P32245 1-332)
Sequence (P32245 whole entry): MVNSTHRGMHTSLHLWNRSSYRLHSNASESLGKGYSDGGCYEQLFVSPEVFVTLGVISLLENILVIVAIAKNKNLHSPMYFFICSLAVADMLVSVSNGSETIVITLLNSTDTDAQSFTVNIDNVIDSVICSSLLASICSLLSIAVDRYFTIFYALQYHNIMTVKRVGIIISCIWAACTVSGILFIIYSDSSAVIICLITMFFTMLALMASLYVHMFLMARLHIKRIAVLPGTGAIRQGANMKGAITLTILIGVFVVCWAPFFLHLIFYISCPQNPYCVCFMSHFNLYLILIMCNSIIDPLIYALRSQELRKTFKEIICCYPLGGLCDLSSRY
Assay details: cell-based or functional assay
Positions of bridges follow the written chain, without caps; N, C: chain ends. Non-standard residues stand in square brackets, D forms with d. Lys(CH2CO2H)2 = N[C@@H](CCCCN(CC(=O)O)CC(=O)O)C(=O)O; Cit = NC(=O)NCCC[C@H](N)C(=O)O; Thz = O=C(O)[C@@H]1CSCN1; Api = NC1(C(=O)O)CCNCC1; Dab = NCC[C@H](N)C(=O)O
Give Fulfilled when the value for MC4R cAMP EC50 is at least 0.08 nM. Give Not fulfilled when it is less.

binder="cyclo(C[Api]H[dF]HWC[Api]H[dF]HW) (disulfide 1-7; SMILES O=C1N[C@H]2CSSC[C@H](NC(=O)[C@H](Cc3c[nH]c4ccccc34)NC(=O)[C@H](Cc3c[nH]cn3)NC(=O)[C@@H](Cc3ccccc3)NC(=O)[C@H](Cc3c[nH]cn3)NC(=O)C3(CCNCC3)NC2=O)C(=O)NC2(CCNCC2)C(=O)N[C@@H](Cc2c[nH]cn2)C(=O)N[C@H](Cc2ccccc2)C(=O)N[C@@H](Cc2c[nH]cn2)C(=O)N[C@H]1Cc1c[nH]c2ccccc12, also called c[c[Cys-ACP-His-D-Phe-His-Trp-Cys]-ACP-His-D-Phe-His-Trp]) [Chem. 50]" label_value=Fulfilled
binder="cyclo(CRH[dF][Cit]WCRH[dF][Cit]W) (disulfide 1-7; SMILES N=C(N)NCCC[C@@H]1NC(=O)[C@@H]2CSSC[C@H](NC(=O)[C@H](Cc3c[nH]c4ccccc34)NC(=O)[C@H](CCCNC(N)=O)NC(=O)[C@@H](Cc3ccccc3)NC(=O)[C@H](Cc3c[nH]cn3)NC1=O)C(=O)N[C@@H](CCCNC(=N)N)C(=O)N[C@@H](Cc1c[nH]cn1)C(=O)N[C@H](Cc1ccccc1)C(=O)N[C@@H](CCCNC(N)=O)C(=O)N[C@@H](Cc1c[nH]c3ccccc13)C(=O)N2, also called c[c[Cys-Arg-His-D-Phe-Cit-Trp-Cys]-Arg-His-D-Phe-Cit-Trp]) [Chem. 54]" label_value="Not fulfilled"
binder="cyclo(CKH[dF]HWCKKKKW) (disulfide 1-7; SMILES NCCCC[C@@H]1NC(=O)[C@H](CCCCN)NC(=O)[C@H](CCCCN)NC(=O)[C@@H]2CSSC[C@H](NC(=O)[C@H](Cc3c[nH]c4ccccc34)NC(=O)[C@H](CCCCN)NC1=O)C(=O)N[C@@H](CCCCN)C(=O)N[C@@H](Cc1c[nH]cn1)C(=O)N[C@H](Cc1ccccc1)C(=O)N[C@@H](Cc1c[nH]cn1)C(=O)N[C@@H](Cc1c[nH]c3ccccc13)C(=O)N2, also called c[c[Cys-Lys-His-D-Phe-His-Trp-Cys]-Lys-Lys-Lys-Lys-Trp]) [Chem. 77]" label_value=Fulfilled
binder="cyclo(CAH[dF][Cit]WCAKKKW) (disulfide 1-7; SMILES C[C@@H]1NC(=O)[C@@H]2CSSC[C@H](NC(=O)[C@H](Cc3c[nH]c4ccccc34)NC(=O)[C@H](CCCNC(N)=O)NC(=O)[C@@H](Cc3ccccc3)NC(=O)[C@H](Cc3c[nH]cn3)NC1=O)C(=O)N[C@@H](C)C(=O)N[C@@H](CCCCN)C(=O)N[C@@H](CCCCN)C(=O)N[C@@H](CCCCN)C(=O)N[C@@H](Cc1c[nH]c3ccccc13)C(=O)N2, also called c[c[Cys-Ala-His-D-Phe-Cit-Trp-Cys]-Ala-Lys-Lys-Lys-Trp]) [Chem. 48]" label_value="Not fulfilled"
binder="cyclo(C[Thz]H[dF]HWCAA[Lys(CH2CO2H)2]AW) (disulfide 1-7; SMILES C[C@@H]1NC(=O)[C@H](C)NC(=O)[C@@H]2CSSC[C@H](NC(=O)[C@H](Cc3c[nH]c4ccccc34)NC(=O)[C@H](C)NC(=O)[C@H](CCCCN(CC(=O)O)CC(=O)O)NC1=O)C(=O)N1CSC[C@H]1C(=O)N[C@@H](Cc1c[nH]cn1)C(=O)N[C@H](Cc1ccccc1)C(=O)N[C@@H](Cc1c[nH]cn1)C(=O)N[C@@H](Cc1c[nH]c3ccccc13)C(=O)N2, also called c[c[Cys-THAZ-His-D-Phe-His-Trp-Cys]-Ala-Ala-Lys(CH2COOH)2-Ala-Trp]) [Chem. 104]" label_value=Fulfilled

Data request: Please check the record cyclo(CAH[dF][Dab]WCAH[dF][Dab]W) (disulfide 1-7; SMILES C[C@@H]1NC(=O)[C@@H]2CSSC[C@H](NC(=O)[C@H](Cc3c[nH]c4ccccc34)NC(=O)[C@H](CCN)NC(=O)[C@@H](Cc3ccccc3)NC(=O)[C@H](Cc3c[nH]cn3)NC1=O)C(=O)N[C@@H](C)C(=O)N[C@@H](Cc1c[nH]cn1)C(=O)N[C@H](Cc1ccccc1)C(=O)N[C@@H](CCN)C(=O)N[C@@H](Cc1c[nH]c3ccccc13)C(=O)N2, also called c[c[Cys-Ala-His-D-Phe-Dab-Trp-Cys]-Ala-His-D-Phe-Dab-Trp]) [Chem. 17] and state if its MC4R cAMP EC50 is at or above 0.08 nM.
Data returned: Fulfilled
